assay_notes: Serum pharmacokinetics of intravenous 3-AP
Format: in vivo, human
experimental_context: human, serum, iv, 100 mg, AUC, Avg., 100 mg 2-hour infusion, mean

{"smiles_structure": "NC(=S)NN=Cc1ncccc1N", "units_of_measure": "µM·h", "AUC": 9.5}

###

assay_notes: Serum pharmacokinetics and bioavailability of oral 3-AP
experimental_context: human, serum, po, 150 mg, Cmax, Avg.; average for patients receiving an oral dose of 150 mg

{"compound": "NC(=S)NN=Cc1ncccc1N [3-AP]", "units_of_measure": "µM", "Cmax": 5}

###

assay_notes: Serum pharmacokinetics and bioavailability of oral 3-AP
experimental_context: human, serum, po, 100 mg, MRT, oral dose 100 mg, individual patients
quantity_measured: MRT (h)

{"molecule": "NC(=S)NN=Cc1ncccc1N [3-AP]", "units_of_measure": "h", "measured_result": 2.8}

###

assay_notes: Serum pharmacokinetics and bioavailability of oral 3-AP
experimental_context: human, serum, po, MRT, Avg., mean across dose levels
quantity_measured: MRT (h)

{"smiles_structure": "NC(=S)NN=Cc1ncccc1N", "quantity_measured": "MRT", "measured_result": 3.2}

###

assay_notes: Serum pharmacokinetics of intravenous 3-AP
Type: in vivo, human
experimental_context: human, serum, iv, 100 mg
quantity_measured: Tmax (h)

{"compound": "NC(=S)NN=Cc1ncccc1N [3-AP]", "units_of_measure": "h", "measured_result": 2}

###

assay_notes: Serum pharmacokinetics and bioavailability of oral 3-AP
experimental_context: human, serum, po, 200 mg, MRT, oral dose 200 mg, individual patients

{"smiles_structure": "NC(=S)NN=Cc1ncccc1N", "MRT / h": 2.5}

###

assay_notes: Serum pharmacokinetics and bioavailability of oral 3-AP
experimental_context: human, serum, po, Tmax, Avg., mean across dose levels

{"smiles_structure": "NC(=S)NN=Cc1ncccc1N", "units_of_measure": "h", "Tmax": 1.9}

Every entry's value here was drawn from paper PMC3288125.
